Sourced from patent US20170128448A1

System: human NK cell
Assay: NK cell IFN-γ production in response to immobilized Ig-G and IL-2 stimulation
Type: cell-based
Conditions: read-out: EC50, enhancement of NK cell IFN-γ production
Excerpt: Without being bound by a particular theory, Compound A is believed to enhance the human NK cell killing function, antibody-dependent cellular cytotoxicity (ADCC), in rituximab coated lymphoma cell lines.
pEC50: −log10 of the molar value.
READOUT: pEC50

# MOLECULE, READOUT_NUMBER
measured = [
    ("Cc1nc2cccc(N)c2c(=O)n1C1CCC(=O)NC1=O (stereo not shown)", 8.82),
]
